# Assayed Target: T1, human TGFβ1 (human, UniProt P01137 279-390)
# T1 construct: also called TGFβ1 homodimer
# T1 sequence (P01137 279-390 limits assumed): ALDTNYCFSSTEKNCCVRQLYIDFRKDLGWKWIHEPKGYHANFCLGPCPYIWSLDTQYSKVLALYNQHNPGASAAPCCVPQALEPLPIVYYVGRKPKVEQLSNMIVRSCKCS
# Procedure Details: Biacore off-rate vs wt GC1008, 50 nM
# Description: Plasmids encoding either the GC1008 heavy chain or light chain were used as a template in PCR-based mutagenesis reactions. […] Purified variant antibody samples were analyzed in duplicate on a Biacore® 3000 (GE Healthcare) at 50 nM concentrations, using the 100 RU level TGFβ1, 2, and 3 immobilized surfaces. […]
Examples of binders with documented kd var/kd wt follow.
Metric: kd var/kd wt

Binder: G101Y (antibody, V domains shown, GC1008 IgG4 variant) VH: QVQLVQSGAEVKKPGSSVKVSCKASGYTFSSNVISWVRQAPGQGLEWMGGVIPIVDIANYAQRFKGRVTITADESTSTTYMELSSLRSEDTAVYYCASTLYLVLDAMDYWGQGTLVTVSS VL: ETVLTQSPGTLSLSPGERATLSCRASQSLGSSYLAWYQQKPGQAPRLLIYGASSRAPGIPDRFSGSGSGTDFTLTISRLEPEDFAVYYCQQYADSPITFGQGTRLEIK
Experimental Result: 1.9

Binder: I52L (antibody, V domains shown, GC1008 IgG4 variant) VH: QVQLVQSGAEVKKPGSSVKVSCKASGYTFSSNVISWVRQAPGQGLEWMGGVLPIVDIANYAQRFKGRVTITADESTSTTYMELSSLRSEDTAVYYCASTLGLVLDAMDYWGQGTLVTVSS VL: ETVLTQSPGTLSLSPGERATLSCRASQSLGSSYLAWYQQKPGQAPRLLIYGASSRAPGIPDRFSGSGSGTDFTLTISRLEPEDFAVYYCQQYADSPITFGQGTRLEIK
Experimental Result: 3
